Molecular target: GST-CLK1cat (amino acids 141–484 of human CLK1) (Homo sapiens)
Construct: containing amino acids 141–484 of human CLK1; made in house; host or cells: E. coli
Sequence (P49759 141-484): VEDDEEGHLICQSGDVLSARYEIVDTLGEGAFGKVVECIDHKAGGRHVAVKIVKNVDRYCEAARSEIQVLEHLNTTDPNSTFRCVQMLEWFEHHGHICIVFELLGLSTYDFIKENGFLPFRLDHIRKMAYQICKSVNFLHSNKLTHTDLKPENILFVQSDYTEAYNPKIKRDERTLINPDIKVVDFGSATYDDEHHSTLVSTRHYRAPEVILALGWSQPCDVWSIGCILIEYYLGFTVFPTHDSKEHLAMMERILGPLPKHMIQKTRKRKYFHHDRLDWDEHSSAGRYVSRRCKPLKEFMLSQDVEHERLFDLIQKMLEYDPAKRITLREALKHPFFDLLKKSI
Experiment: Kinase-GLO luminescent assay of CLK1 catalytic activity
Assay type: biochemical
Details: 1 µM inhibitor concentration; residual activity relative to control without inhibitor; read-out: CLK1 residual activity
Listed next: entries and their corresponding remaining activity at 1 µM.
testReadout: remaining activity at 1 µM (%)

[[record]]
molecule = "COc1ccc(Cn2c3cc(OC)ccc3c3ccnc(C)c32)cc1"
targetofassay = "GST-CLK1cat (amino acids 141–484 of human CLK1) (Homo sapiens)"
recordednumber = 80

[[record]]
molecule = "C#CCn1c2cc(OC)ccc2c2ccnc(C)c21"
targetofassay = "GST-CLK1cat (amino acids 141–484 of human CLK1) (Homo sapiens)"
recordednumber = 17

[[record]]
molecule = "Cc1nccc2c1C(=O)c1cc(O)ccc1-2"
targetofassay = "GST-CLK1cat (amino acids 141–484 of human CLK1) (Homo sapiens)"
recordednumber = 27

[[record]]
molecule = "COc1ccc2c3ccnc(C)c3n(CC(N)=O)c2c1"
targetofassay = "GST-CLK1cat (amino acids 141–484 of human CLK1) (Homo sapiens)"
recordednumber = 89

[[record]]
molecule = "COc1ccc2c3ccnc(C)c3n(CCN3CCOCC3)c2c1"
targetofassay = "GST-CLK1cat (amino acids 141–484 of human CLK1) (Homo sapiens)"
recordednumber = 77

[[record]]
molecule = "COc1ccc2c(c1)C(O)c1c-2ccnc1C (racemic)"
targetofassay = "GST-CLK1cat (amino acids 141–484 of human CLK1) (Homo sapiens)"
recordednumber = 76

[[record]]
molecule = "CCCCn1c2cc(OC)c(Cl)cc2c2ccnc(C)c21"
targetofassay = "GST-CLK1cat (amino acids 141–484 of human CLK1) (Homo sapiens)"
recordednumber = 62

[[record]]
molecule = "C#CCn1c2cc(OC)ccc2c2ccnc(Cl)c21"
targetofassay = "GST-CLK1cat (amino acids 141–484 of human CLK1) (Homo sapiens)"
recordednumber = 46

[[record]]
molecule = "C#CCn1c2c(Br)nccc2c2ccc(Cl)c(Cl)c21"
targetofassay = "GST-CLK1cat (amino acids 141–484 of human CLK1) (Homo sapiens)"
recordednumber = 84

[[record]]
molecule = "COc1ccc2c3ccnc(C)c3n(CCOc3ccccc3)c2c1"
targetofassay = "GST-CLK1cat (amino acids 141–484 of human CLK1) (Homo sapiens)"
recordednumber = 37

[[record]]
molecule = "COc1ccc2c3ccnc(C)c3n(C(C)=O)c2c1"
targetofassay = "GST-CLK1cat (amino acids 141–484 of human CLK1) (Homo sapiens)"
recordednumber = 15


###

Target: human recombinant MAO-A (Homo sapiens)
Sequence (P21397 1-527): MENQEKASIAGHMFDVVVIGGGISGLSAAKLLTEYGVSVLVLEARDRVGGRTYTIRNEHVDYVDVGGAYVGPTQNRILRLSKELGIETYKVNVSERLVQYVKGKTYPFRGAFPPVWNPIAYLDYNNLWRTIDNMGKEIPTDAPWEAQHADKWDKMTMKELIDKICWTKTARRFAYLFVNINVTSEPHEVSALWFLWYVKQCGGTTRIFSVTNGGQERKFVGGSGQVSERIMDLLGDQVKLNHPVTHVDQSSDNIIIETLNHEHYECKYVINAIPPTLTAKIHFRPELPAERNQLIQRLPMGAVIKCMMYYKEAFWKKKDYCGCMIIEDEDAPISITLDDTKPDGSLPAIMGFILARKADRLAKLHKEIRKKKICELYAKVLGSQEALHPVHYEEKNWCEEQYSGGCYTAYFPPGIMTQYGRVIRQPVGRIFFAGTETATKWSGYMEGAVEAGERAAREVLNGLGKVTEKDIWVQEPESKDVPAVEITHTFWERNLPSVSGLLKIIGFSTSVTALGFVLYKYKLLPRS
Assay: MAO-GLO luminescence assay of MAO-A catalytic activity
Format: biochemical
Conditions: read-out: MAO-A residual activity
Define the label as rule met when remaining activity at 1 µM is strictly less than 50% and as rule not met in all remaining cases.

[[record]]
compound = "COc1ccc2c(c1)[nH]c1c(=O)[nH]ccc12"
classname = "rule not met"

[[record]]
compound = "Cc1nccc2c3ccc(Cl)c(Cl)c3n(CC#N)c12"
classname = "rule not met"

[[record]]
compound = "COc1ccc2c3ccnc(C)c3n(CC=C(C)C)c2c1"
classname = "rule not met"

[[record]]
compound = "COc1ccc2c(c1)[nH]c1c(Cl)nccc12"
classname = "rule not met"

[[record]]
compound = "COc1ccc2c(c1)[nH]c1c(C)nccc12"
classname = "rule met"

[[record]]
compound = "CCOC(=O)CCn1c2cc(OC)ccc2c2ccnc(C)c21"
classname = "rule not met"

[[record]]
compound = "Cc1nccc2c1[nH]c1ccccc12 [harmane, reference compound]"
classname = "rule met"


###

Each entry below carries its reported remaining activity at 1 µM.
Target: GST-DYRK1A-ΔC (amino acids 1–499 of rat DYRK1A) (Rattus norvegicus)
Construct: containing amino acids 1–499 of rat DYRK1A; made in house; host or cells: E. coli
Test: Kinase-GLO luminescent assay of DYRK1A catalytic activity
Assay type: biochemical
Conditions: 1 µM inhibitor concentration; residual activity relative to control without inhibitor; read-out: DYRK1A residual activity
testReadout: remaining activity at 1 µM

[[record]]
molecule = "COc1ccc2c(c1)/C(=C\\C#N)c1c-2ccnc1C"
testreadout = "remaining activity at 1 µM"
result = "35%"

[[record]]
molecule = "COc1ccc2c3ccnc(C)c3n(CCN3CCOCC3)c2c1"
testreadout = "remaining activity at 1 µM"
result = "33%"

[[record]]
molecule = "COc1ccc2c3ccnc(C)c3n(CC(=O)OC(C)C)c2c1"
testreadout = "remaining activity at 1 µM"
result = "4%"

[[record]]
molecule = "CCc1nccc2c1[nH]c1cc(OC)ccc12 [AnnH89, 1-Ethyl-7-methoxy-9H-pyrido[3,4-b]indole]"
testreadout = "remaining activity at 1 µM"
result = "37%"

[[record]]
molecule = "CCOC(=O)Cn1c2cc(OC)ccc2c2ccnc(CC)c21"
testreadout = "remaining activity at 1 µM"
result = "47%"

[[record]]
molecule = "COc1c(Cl)cc2c([nH]c3c(C)nccc32)c1Cl"
testreadout = "remaining activity at 1 µM"
result = "99%"

[[record]]
molecule = "COc1ccc2c([nH]c3c(C)nccc32)c1Cl"
testreadout = "remaining activity at 1 µM"
result = "97%"

[[record]]
molecule = "Clc1ccc2c([nH]c3c(Br)nccc32)c1Cl"
testreadout = "remaining activity at 1 µM"
result = "36%"

[[record]]
molecule = "Cc1nccc2c1[nH]c1cc(OCCN(C)C)ccc12"
testreadout = "remaining activity at 1 µM"
result = "95%"

[[record]]
molecule = "COc1ccc2c(c1)C(=O)c1c-2ccnc1C"
testreadout = "remaining activity at 1 µM"
result = "55%"


###

Target: human recombinant MAO-A (Homo sapiens)
Test: MAO-GLO luminescence assay of MAO-A catalytic activity
Assay type: biochemical
Settings: 1 µM inhibitor concentration; residual activity relative to control without inhibitor; read-out: MAO-A residual activity
Mark 1 only when remaining activity at 1 µM stays strictly below 30%. Values equal to the cut-off are -1.

[[record]]
molecule = "C#CCn1c2cc(OC)ccc2c2ccnc(Cl)c21"
classname = -1

[[record]]
molecule = "COc1ccc2c3ccnc(C)c3n(CCC#N)c2c1"
classname = -1

[[record]]
molecule = "COc1ccc2c([nH]c3c(C)nccc32)c1Cl"
classname = 1

[[record]]
molecule = "CNC(=O)Cn1c2cc(OC)ccc2c2ccnc(C)c21"
classname = 1

[[record]]
molecule = "COc1ccc2c3ccnc(C)c3n(C(C)C#N)c2c1 (racemic)"
classname = -1

[[record]]
molecule = "COc1ccc2c3ccnc(C)c3n(CCN3CCOCC3)c2c1"
classname = -1

[[record]]
molecule = "CCc1nccc2c1[nH]c1cc(OC)ccc12 [AnnH89, 1-Ethyl-7-methoxy-9H-pyrido[3,4-b]indole]"
classname = -1

[[record]]
molecule = "COc1ccc2c3ccnc(C)c3n(C/C=C/c3ccccc3)c2c1"
classname = -1

[[record]]
molecule = "COc1ccc(Cn2c3cc(OC)ccc3c3ccnc(C)c32)cc1"
classname = -1

[[record]]
molecule = "CCCCn1c2c(C)nccc2c2ccc(OC)c(Br)c21"
classname = 1


###

Reported values of remaining activity at 1 µM for individual entries
Molecular target: GST-CLK1cat (amino acids 141–484 of human CLK1) (Homo sapiens)
Construct: containing amino acids 141–484 of human CLK1; made in house; host or cells: E. coli
Experiment: Kinase-GLO luminescent assay of CLK1 catalytic activity
Assay type: biochemical
Conditions: 1 µM inhibitor concentration; residual activity relative to control without inhibitor; read-out: CLK1 residual activity
testReadout: remaining activity at 1 µM

[[record]]
compound = "COc1ccc2c3ccnc(C)c3n(CC(=O)O)c2c1"
result = "34%"

[[record]]
compound = "COc1ccc2c3ccnc(C)c3n(Cc3ccc4ccccc4c3)c2c1"
result = "84%"

[[record]]
compound = "COc1ccc2c3ccnc(C)c3n(C(C)C#N)c2c1 (racemic)"
result = "10%"

